Item-by-item account of pEC50
System: TNFα
assay.name: cells
Format: cell-based, human
experimental.conditions: Homo sapiens, Monocyte, LPS-stimulated human monocytes, TNFα content; read-out: EC50 TNF
pEC50: −log10 of the molar value.

>  <compound>
COC(=O)NCCC(C)(C)Nc1cc(-c2ccc3cc(C#N)cnn23)ncc1C(=O)NC[C@@H](F)C(C)(C)O

>  <target.desc>
TNFα

>  <qualifier.symbol>
=

>  <pEC50>
7.06

$$$$
>  <compound>
CC(C)(O)[C@H](F)CNC(=O)c1cnc(-c2ccc3cc(C#N)cnn23)cc1NCC1CCS(=O)(=O)C1 (some centres unmarked)

>  <target.desc>
TNFα

>  <qualifier.symbol>
=

>  <pEC50>
5.96

$$$$
>  <compound>
CC(C)(O)[C@H](F)CNC(=O)c1cnc(-c2ccc3cc(C#N)cnn23)cc1Nc1ccc(-n2ccccc2=O)cc1

>  <target.desc>
TNFα

>  <qualifier.symbol>
=

>  <pEC50>
7.44

$$$$
>  <compound>
CC(C)(O)[C@H](F)CNC(=O)c1cnc(-c2ccc3cc(C#N)cnn23)cc1Nc1cccc(-c2cnc[nH]2)c1

>  <target.desc>
TNFα

>  <qualifier.symbol>
=

>  <pEC50>
6.68

$$$$
>  <compound>
CN(C)C(=O)N[C@H]1CC[C@H](Nc2cc(-c3ccc4cc(C#N)cnn34)ncc2C(=O)NC[C@@H](F)C(C)(C)O)CC1

>  <target.desc>
TNFα

>  <qualifier.symbol>
=

>  <pEC50>
7.39

$$$$
>  <compound>
CN1CC(C(=O)NC[C@H]2C[C@H](Nc3cc(-c4ccc5cc(C#N)cnn45)ncc3C(=O)NC[C@@H](F)C(C)(C)O)C2)C1

>  <target.desc>
TNFα

>  <qualifier.symbol>
<

>  <pEC50>
5.00

$$$$
>  <compound>
CC(C)(O)[C@H](F)CNC(=O)c1cnc(-c2ccc3cc(C#N)cnn23)cc1Nc1ccc2c(N)n[nH]c2c1

>  <target.desc>
TNFα

>  <qualifier.symbol>
=

>  <pEC50>
7.32

$$$$
>  <compound>
CC(C)Nc1cc(-c2ccc3cc(C#N)cnn23)ncc1C(=O)NCCNS(C)(=O)=O

>  <target.desc>
TNFα

>  <qualifier.symbol>
=

>  <pEC50>
6.68

$$$$
>  <compound>
CNC(=O)C12CCC(Nc3cc(-c4ccc5cc(C#N)cnn45)ncc3C(=O)NC[C@@H](F)C(C)(C)O)(CC1)CC2

>  <target.desc>
TNFα

>  <qualifier.symbol>
=

>  <pEC50>
7.80

$$$$
>  <compound>
CC(C)(O)[C@H](F)CNC(=O)c1cnc(-c2ccc3cc(C#N)cnn23)cc1N[C@H]1CC[C@H](NC(=O)OC2COC2)CC1

>  <target.desc>
TNFα

>  <qualifier.symbol>
=

>  <pEC50>
7.26

$$$$
>  <compound>
CC(C)(O)[C@H](F)CNC(=O)c1cnc(-c2ccc3cc(C#N)cnn23)cc1Nc1ccc(N2CC3(COC3)C2)nc1

>  <target.desc>
TNFα

>  <qualifier.symbol>
=

>  <pEC50>
7.05

$$$$
>  <compound>
CC(C)(O)CCNC(=O)c1cnc(-c2ccc3cc(C#N)cnn23)cc1NC12CCC(O)(CC1)CC2

>  <target.desc>
TNFα

>  <qualifier.symbol>
=

>  <pEC50>
7.64

$$$$
>  <compound>
N#Cc1cnn2c(-c3cc(NC45CCC(O)(CC4)CC5)c(C(=O)NCC(=O)N4CC(F)(F)C4)cn3)ccc2c1

>  <target.desc>
TNFα

>  <qualifier.symbol>
=

>  <pEC50>
7.60

$$$$
>  <compound>
C=CC(=O)N[C@H]1CC[C@H](NC(=O)c2cnc(-c3ccc4cc(C#N)cnn34)cc2NC2CCCC(O)C2)CC1 (some centres unmarked)

>  <target.desc>
TNFα

>  <qualifier.symbol>
=

>  <pEC50>
6.86

$$$$

Every entry's value here was drawn from patent US10336762B2.
